Assay: qHTS assay to identify small molecule antagonists of the TGF-beta/Smad signaling pathway - cell viability counter screen (AID 1346824); also: nearly all actives have a fitted effect of over 50% in size
Details: SBE-bla HEK293T viability, CellTiter-Glo luminescence; series mostly up to 76.8 µM
Records with an inconclusive call do not appear. Activity calls are given as the source filed them. Calls follow the shape of the dose curve; as a rule, active = well fitted cell-killing curve with a large enough effect in the repeat runs; inconclusive = weak or mixed curves; inactive = flat fitted curve, though single readings scatter.
Select the correct class. Options are y = active, n = inactive and nothing else.

Test call, this compound: "O=C(c1ccc(F)cc1)C1CCN(CCn2c(=O)[nH]c3ccccc3c2=O)CC1"
n

What did the test return for CCCCC(CC)COC(=O)c1ccccc1C(=O)O (configuration not stated) ?
n

Please state the recorded outcome for this compound: "O=C(Nc1ccc(Oc2ccc(Cl)cc2)c(Cl)c1)c1cc(I)cc(I)c1O"
n

Kindly provide the recorded test outcome for the following compound: "O=c1[nH]cnc2nc[nH]c12"
n

For "CN(C)c1ccc(SC#N)cc1" , which call appears in the assay record?
n

# fetch the recorded call for CCC(C)Nc1ccc(NC(C)CC)cc1 (configuration not stated) here
y

Returns: the outcome recorded for "CC(C)(C)CC(C)(C)c1ccc(OCCOCC[N+](C)(C)Cc2ccccc2)cc1" in this assay.
y
